# target-or-system: Androgen receptor (Homo sapiens, UniProt P10275)
# Sequence (P10275 whole entry, the tested form may be a part): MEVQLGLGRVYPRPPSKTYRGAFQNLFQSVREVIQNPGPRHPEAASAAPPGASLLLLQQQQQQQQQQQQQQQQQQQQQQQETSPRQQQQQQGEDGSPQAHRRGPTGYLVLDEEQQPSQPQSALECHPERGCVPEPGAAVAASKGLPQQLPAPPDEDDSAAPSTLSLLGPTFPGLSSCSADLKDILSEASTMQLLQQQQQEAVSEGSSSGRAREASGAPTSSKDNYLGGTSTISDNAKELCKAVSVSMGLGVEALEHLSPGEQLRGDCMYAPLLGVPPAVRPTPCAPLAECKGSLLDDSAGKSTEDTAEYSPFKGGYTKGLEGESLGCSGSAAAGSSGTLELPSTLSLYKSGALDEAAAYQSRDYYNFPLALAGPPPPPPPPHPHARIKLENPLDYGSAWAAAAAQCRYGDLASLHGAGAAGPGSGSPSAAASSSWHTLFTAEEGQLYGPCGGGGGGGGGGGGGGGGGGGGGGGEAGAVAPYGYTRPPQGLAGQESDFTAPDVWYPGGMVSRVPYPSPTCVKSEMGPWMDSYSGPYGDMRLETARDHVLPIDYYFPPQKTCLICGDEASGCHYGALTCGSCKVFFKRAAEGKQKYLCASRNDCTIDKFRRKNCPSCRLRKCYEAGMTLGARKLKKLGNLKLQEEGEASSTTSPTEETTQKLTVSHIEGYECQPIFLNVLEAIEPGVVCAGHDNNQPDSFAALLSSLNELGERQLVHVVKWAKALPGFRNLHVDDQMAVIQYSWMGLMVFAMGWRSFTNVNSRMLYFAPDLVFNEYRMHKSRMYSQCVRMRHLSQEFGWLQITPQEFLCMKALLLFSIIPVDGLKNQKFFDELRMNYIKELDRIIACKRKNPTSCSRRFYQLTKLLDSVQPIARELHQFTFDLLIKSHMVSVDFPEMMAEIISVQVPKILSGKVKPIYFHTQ
# procedure-summary: Antagonist activity at human androgen receptor LBD expressed in human MDA-kb2 cells by luciferase reporter gene assay
# Format: cell-based
# condition-context: read-out: pIC50 (converted)
readout-label: IC50 (µM)

Worked examples follow.
smiles-data	IC50 / µM
N#Cc1ccc(-c2cc(=O)c3c(O)cccc3o2)cc1	0.251
O=c1cc(-c2ccc(C(F)(F)F)cc2)oc2cccc(O)c12	1.23

I. O=c1cc(-c2ccc(F)cc2)oc2cccc(O)c12
II. CSc1ccc(-c2cc(=O)c3c(O)cccc3o2)cc1
Asked: Please tell me which of the two, I or II , has the higher reported IC50 value. Could you answer with the label of the item you picked?
Given back: II

====

# target-or-system: Androgen receptor (Homo sapiens, UniProt P10275)
# procedure-summary: Antagonist activity at human androgen receptor LBD expressed in human MDA-kb2 cells by luciferase reporter gene assay
# Type: cell-based
# condition-context: read-out: pIC50 (converted)
readout-label: IC50 (µM)

smiles-data	units-label	IC50
O=c1cc(-c2ccc(O)cc2)oc2cccc(O)c12	µM	0.851

I. O=c1cc(-c2ccccc2)oc2cccc(F)c12
II. NC(=O)c1ccc(-c2cc(=O)c3c(O)cccc3o2)cc1
III. Nc1ccc(-c2cc(=O)c3c(O)cccc3o2)cc1
IV. Cc1ccc(-c2cc(=O)c3c(O)cccc3o2)cc1
V. N#Cc1ccc(-c2cc(=O)c3c(F)cccc3o2)cc1
Asked: Sort these compounds on IC50 so the largest reading comes first. Give me the labels in the order the question wants.
Given back: IV, II, III, V, I
(IV: 11.2 µM, II: 3.55 µM, III: 2 µM, V: 1.2 µM, I: 0.776 µM)

A. COc1cccc2oc(-c3ccc(F)cc3)cc(=O)c12
B. O=c1cc(-c2ccc(F)cc2)oc2cccc(F)c12
C. O=c1cc(-c2ccc(Cl)cc2)oc2cccc(O)c12
Asked: Arrange the 3 entries by IC50 so the values rise. Give me the labels in the order the question wants.
Given back: B, C, A
(B: 0.191 µM, C: 0.457 µM, A: 1.62 µM)

====

# target-or-system: Androgen receptor (Homo sapiens)
# procedure-summary: Antagonist activity at human androgen receptor LBD expressed in human MDA-kb2 cells by luciferase reporter gene assay
# Format: cell-based
# condition-context: read-out: pIC50 (converted)
readout-label: IC50 (nM)

P. O=c1cc(-c2ccc(Cl)cc2)oc2cccc(F)c12
Q. CN(C)c1ccc(-c2cc(=O)c3c(O)cccc3o2)cc1
Asked: Please tell me which of the two, P or Q , has the higher reported IC50 value. Could you answer with the label of the item you picked?
Given back: Q
